Origin of values: patent US20240374579A1

biological target: 15-PGDH/HPGD (Homo sapiens, UniProt P15428); test: hPGDH inhibitor screening biochemical assay; settings: 10 nM enzyme, 15 μM PGE2, 0.25 mM NAD, fluorescence ex/em 340/485 nm
Sequence (P15428 whole entry): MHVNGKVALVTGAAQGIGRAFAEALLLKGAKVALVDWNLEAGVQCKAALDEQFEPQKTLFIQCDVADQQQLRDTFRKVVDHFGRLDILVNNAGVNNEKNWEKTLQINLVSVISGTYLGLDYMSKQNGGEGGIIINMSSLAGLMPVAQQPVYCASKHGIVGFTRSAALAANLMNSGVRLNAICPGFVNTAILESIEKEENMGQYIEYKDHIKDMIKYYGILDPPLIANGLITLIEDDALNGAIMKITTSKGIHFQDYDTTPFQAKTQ
VALUE KIND: IC50

Take a look at these entries with their results.
[[record]]
structure_smiles_string = "O=C(c1ccc2c(cnn2-c2ccc(-c3ncn[nH]3)cc2)c1)N1CCC(F)(F)CC1"
subject_of_test = "15-PGDH/HPGD (Homo sapiens, UniProt P15428)"
value_kind = "IC50"
recorded_result = "< 100 nM"

[[record]]
structure_smiles_string = "O=C(O)c1ccc(-c2cnc3cc(C(=O)N4CCC(F)(F)CC4)ccn23)cn1"
subject_of_test = "15-PGDH/HPGD (Homo sapiens, UniProt P15428)"
value_kind = "IC50"
recorded_result = "100 to 1000 nM"

[[record]]
structure_smiles_string = "O=C(c1cnc2c(cnn2-c2ccc(-c3nnc[nH]3)cc2)c1)N1CCCC(F)(F)C1"
subject_of_test = "15-PGDH/HPGD (Homo sapiens, UniProt P15428)"
value_kind = "IC50"
recorded_result = "< 100 nM"

[[record]]
structure_smiles_string = "C[C@H]1CCN(C(=O)c2cnc3c(cnn3-c3ccc(-c4nnc[nH]4)nc3)c2)C1"
subject_of_test = "15-PGDH/HPGD (Homo sapiens, UniProt P15428)"
value_kind = "IC50"
recorded_result = "< 100 nM"

[[record]]
structure_smiles_string = "O=C(O)c1ccc(-n2nnc3cc(C(=O)N4CCC(F)(F)CC4)cnc32)cc1"
subject_of_test = "15-PGDH/HPGD (Homo sapiens, UniProt P15428)"
value_kind = "IC50"
recorded_result = "< 100 nM"


Kindly consider the entry below.
State its IC50 on 15-PGDH/HPGD (Homo sapiens, UniProt P15428): `O=C(O)c1ccc(-n2ncc3cc(C(=O)N4CCC(F)(F)CC4)ccc32)cc1`
< 100 nM
